Measured z-score accompanies every entry in the list below.
ASSAY INFO: optical density shifts of acrAB sulA E. coli – strain DRC41, OD650, 48 h, E. coli filamentation inducer project, primary screen (AID 1152);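 note: E. coli MC1000 strain DRC41 lacking acrAB efflux pump and sulA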
DETAILS: higher = more signal, called active from +8 up or from −8 down unless noted
The source made the active and inactive calls.

{"MOLECULE": "COC(=O)[C@@]1(Cc2ccc(F)cc2)[C@H]2c3cc(C(=O)N(C)C)[nH]c3C[C@H]2CN1C(=O)c1ccccc1", "z-score": "-0.652 [setting not given] (inactive)"}
{"MOLECULE": "CCOC(=O)[C@H]1CC=C2C(=O)Oc3ccc(Br)cc3[C@@H]21", "z-score": "-0.704 (inactive)"}
{"MOLECULE": "C=C(CC1(CNP(=O)(c2ccccc2)c2ccccc2)CC1)c1ccccc1", "z-score": "-0.822 (inactive)"}
{"MOLECULE": "COC(=O)[C@H]1C(=O)c2ccccc2O[C@@](C(=O)OC)(c2ccccc2)[C@@H]1c1ccccc1", "z-score": "0.0473 (inactive)"}
{"MOLECULE": "CN1CCC(c2ccc(CO)cc2)=CC1C1CC1 (centres undefined)", "z-score": "-0.492 (inactive)"}
{"MOLECULE": "COc1cc2c(cc1O)C(C)N(C)CC2 (centres undefined)", "z-score": "1.01 (inactive)"}
{"MOLECULE": "COC(=O)[C@@]1(Cc2ccccc2)[C@H]2c3cc(C(=O)N(C)C)n(C)c3C[C@H]2CN1C(=O)c1ccccc1", "z-score": "-0.741 (inactive)"}
{"MOLECULE": "CCCC[C@@H]1C[C@H]1[C@@H](NP(=O)(c1ccccc1)c1ccccc1)c1ccc(Cl)cc1", "z-score": "-1.26 (inactive)"}
{"MOLECULE": "COC(=O)NCC=Cc1nc(CCC=CC(=O)O[C@H]2CC3CC(=O)O[C@@H](C=CCC(C)C)C[C@@H]4CC[C@H](C)[C@@H](C[C@@H](OC)C[C@H](C2)O3)O4)co1", "z-score": "-0.0987 (inactive)"}
